Target: D(2) dopamine receptor (Bos taurus, UniProt P20288)
Sequence (P20288 whole entry): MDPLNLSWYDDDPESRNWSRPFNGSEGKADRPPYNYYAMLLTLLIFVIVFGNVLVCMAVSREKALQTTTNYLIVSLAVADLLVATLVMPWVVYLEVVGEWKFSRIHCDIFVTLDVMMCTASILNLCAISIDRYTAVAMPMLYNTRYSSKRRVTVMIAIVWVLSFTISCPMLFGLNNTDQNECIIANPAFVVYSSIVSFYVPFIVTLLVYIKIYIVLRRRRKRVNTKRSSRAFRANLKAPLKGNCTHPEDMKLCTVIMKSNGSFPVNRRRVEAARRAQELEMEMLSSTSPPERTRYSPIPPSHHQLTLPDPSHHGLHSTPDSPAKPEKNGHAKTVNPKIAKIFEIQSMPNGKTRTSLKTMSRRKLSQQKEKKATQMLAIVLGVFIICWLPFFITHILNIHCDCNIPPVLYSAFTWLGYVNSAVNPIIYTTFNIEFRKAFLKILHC
Reported values of pKi for individual entries
Quick note: pKi values are minus log10 of concentrations in mol/L.

Query: Provide the reported pKi (system: D(2) dopamine receptor (Bos taurus, UniProt P20288)) for OCCN1CCN(CC/C=C2/c3ccccc3Sc3ccc(C(F)(F)F)cc32)CC1
Reply: 8.96

Query: Provide the reported pKi (system: D(2) dopamine receptor (Bos taurus, UniProt P20288)) for CN1CCN(CC/C=C2/c3ccccc3Sc3ccc(S(=O)(=O)N(C)C)cc32)CC1 [MLS000028463]
Reply: 8.85

Query: Provide the reported pKi (system: D(2) dopamine receptor (Bos taurus, UniProt P20288)) for O=c1[nH]c2ccccc2n1C1CCN(CCCC(c2ccc(F)cc2)c2ccc(F)cc2)CC1
Reply: 9.10
